tested on: Rattus norvegicus; assay: AUC(0 to last) in Wistar rat at 0.2 mg/kg, iv and 2 mg/kg, po; type: ADME, organism-based, Plasma; settings: in vivo
measured.metric: AUClast (ng·h/mL)
// note: answer is a bare numeric in ng·h/mL

For the molecule O=C(O)Cn1c2c(c3cc(F)ccc31)CN(C(=O)Cc1c[nH]c3ccccc13)CC2 , report AUClast.
62

====

experiment: Clearance in beagle dog at 1 mg/kg, iv; assay type: ADME, organism-based, Canis lupus familiaris; design: dose 1 mg/kg, route intravenous; conditions: in vivo
Measured clearance accompanies every entry in the list below.
Could you give me the number in mL/min/kg? Just the number is fine.

[[record]]
compound = "O=C(O)Cn1c2c(c3cc(F)ccc31)CN(C(=O)c1cccc3ccccc13)CC2 [SETIPIPRANT]"
observed_value = 1.3


Next, consider the following compound.
Tell me clearance reported for O=C(O)Cn1c2c(c3cc(F)ccc31)CN(C(=O)c1cccc(Cl)c1)CC2
11

====

Biological target: Prostaglandin D2 receptor 2 (Homo sapiens)
Sequence (Q9Y5Y4 whole entry): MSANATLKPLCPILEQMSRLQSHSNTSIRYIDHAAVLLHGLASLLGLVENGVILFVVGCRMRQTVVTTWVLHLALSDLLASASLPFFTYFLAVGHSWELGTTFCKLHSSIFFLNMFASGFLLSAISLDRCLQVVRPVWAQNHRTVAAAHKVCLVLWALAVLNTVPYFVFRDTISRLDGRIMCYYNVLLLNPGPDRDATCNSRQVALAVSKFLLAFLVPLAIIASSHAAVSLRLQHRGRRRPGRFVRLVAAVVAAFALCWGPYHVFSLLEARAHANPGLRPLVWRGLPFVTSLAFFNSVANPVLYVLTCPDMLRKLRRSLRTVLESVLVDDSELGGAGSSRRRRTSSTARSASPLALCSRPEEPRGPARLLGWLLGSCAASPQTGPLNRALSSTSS
Experiment: Antagonist activity at CRTH2 receptor in human eosinophils assessed as inhibition of PGD2-induced cell shape change incubated for 1 hr prior to PGD2 induction measured after 5 mins by FACS flow cytometric analysis in presence of human plasma
Settings: in the assay text read “incubated for 10 mins” for “incubated for 1 hr”
measured.metric: pIC50
// returns pIC50 (minus log10 of molar concentration), number only

// below: answered molecules
[[record]]
molecule = "O=C(O)Cn1c2c(c3cc(F)ccc31)CN(C(=O)c1cccs1)CC2"
measured_metric = "pIC50"
observed_value = 7.47

[[record]]
molecule = "CCc1ccc(-c2ccc(C(=O)N3CCc4c(c5ccccc5n4CC(=O)O)C3)cc2)cc1"
measured_metric = "pIC50"
observed_value = 6.62

[[record]]
molecule = "Cc1ccc2c(c1)c1c(n2CC(=O)O)CCN(C(=O)c2cccc3ccccc23)C1"
measured_metric = "pIC50"
observed_value = 6.47


Identify measured pIC50 associated with O=C(O)Cn1c2c(c3ccccc31)CN(C(=O)c1cccc(Cl)c1)CC2
7.30

Determine its reported pIC50: O=C(O)Cn1c2c(c3cc(F)ccc31)CN(C(=O)c1cccc3ccccc13)CC2 [SETIPIPRANT]
6.63

Identify the reported pIC50 for the following entry. O=C(O)Cn1c2c(c3cc(F)ccc31)CN(C(=O)c1cccc(Cl)c1)CC2
7.22

Specify measured pIC50 for O=C(O)Cn1c2c(c3cc(F)ccc31)CN(C(=O)Cc1c[nH]c3ccccc13)CC2 .
7.30

Return pIC50 for the following molecule: O=C(O)Cn1c2c(c3cc(F)ccc31)CN(C(=O)Cc1cccc3ccccc13)CC2
6.56
